These data points were gathered from patent US10045981B2.

- protocol description: Solubility in aqueous buffer
- Type: physicochemical
- assay setup: aqueous buffer, pH 7.4, aqueous buffer, pH 7.4, Table 3, second session (after /); read-out: Solubility, pH 7.4
experimental readout: solubility
Lab note: write values as number then unit, every time.

I would be grateful if you could share the reported solubility for C=CC(=O)Nc1cc(CC(=O)OC)cc(-c2cnc3ccccc3n2)c1 . 1 µM

I would be grateful if you could share the reported solubility for C=CC(=O)Nc1cc(CN2CCN(C)C(=O)C2)cc(-c2cnc3ccccc3n2)c1 . 34 µM

I would be grateful if you could share the reported solubility for C=CC(=O)Nc1cc(NS(C)(=O)=O)cc(-c2cnc3ccccc3n2)c1 . 3 µM

I would be grateful if you could share the reported solubility for C=CC(=O)Nc1cc(CN2CCNC(=O)C2)cc(-c2cnc3ccccc3n2)c1 . 88 µM
